Experiment: Prolonged DBU treatment of VKDNYI peptide resin (aspartimide formation)
Assay type: physicochemical
Conditions: VKDNYI; DBU/piperidine/DMF (1:19:79), 225 minutes
measured_metric: D/L-Asu [%] (%)
Just the number please, in %, no unit attached.

Illustrative cases are given below, each with its answer.
compound	endpoint_value
CCCCC(CCCC)(CCCC)OC(=O)C[C@H](NC(=O)OCC1c2ccccc2-c2ccccc21)C(=O)O [Bno]	3.5
CCCC(CCC)(CCC)OC(=O)C[C@H](NC(=O)OCC1c2ccccc2-c2ccccc21)C(=O)O [Php]	3.3
CCC(C)(CC)OC(=O)C[C@H](NC(=O)OCC1c2ccccc2-c2ccccc21)C(=O)O [Mpe, Fmoc-Asp(OMpe)-OH, reference compound]	7.5
CC(C)(C)OC(=O)C[C@H](NC(=O)OCC1c2ccccc2-c2ccccc21)C(=O)O [tBu, Fmoc-Asp(OtBu)-OH, reference compound]	2.6

Exercise: I have this compound here, CCC(CC)(CC)OC(=O)C[C@H](NC(=O)OCC1c2ccccc2-c2ccccc21)C(=O)O [Epe] , and I need its recorded D/L-Asu [%].
Solution: 5.6
